Molecular target: ALK (baculovirus expressed human ALK kinase domain F1098-K1410) (Homo sapiens)
Construct: human ALK kinase domain F1098-K1410; made in house
Sequence (Q9UM73 1098-1410): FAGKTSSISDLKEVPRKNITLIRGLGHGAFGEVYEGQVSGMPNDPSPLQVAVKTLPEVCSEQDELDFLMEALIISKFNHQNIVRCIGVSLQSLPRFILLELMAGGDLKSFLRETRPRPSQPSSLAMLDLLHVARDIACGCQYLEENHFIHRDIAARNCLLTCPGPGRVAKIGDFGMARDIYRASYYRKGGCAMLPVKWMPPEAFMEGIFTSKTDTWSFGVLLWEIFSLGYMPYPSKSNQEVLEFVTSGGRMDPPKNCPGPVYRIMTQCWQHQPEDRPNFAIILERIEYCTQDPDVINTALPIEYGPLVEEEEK
Assay: biochemical
Settings: 1 μM ATP, 4 μM poly-AEKY, 12 nM ALK, 2 hours at ambient temperature; read-out: ALK IC50
measured quantity: IC50

* CCCCC(CC)CNC(=O)c1csc(CNC(=O)COc2ccc(OC(F)(F)F)cc2)n1 (stereo not shown) | 50 to 500 nM
* CSc1ccccc1CNC(=O)c1csc(CNC(=O)COc2ccc(OC(F)(F)F)cc2)n1 | 50 to 500 nM
* Cc1onc(-c2ccccc2)c1CNC(=O)c1csc(CNC(=O)COc2ccc(OC(F)(F)F)cc2)n1 | 50 to 500 nM
* O=C(COc1ccc(OC(F)(F)F)cc1)NCc1nc(C(=O)NCCc2ccncc2)co1 | 500 to 2000 nM
